All values here come from PubChem BioAssay AID1159580.

- assay overview: chemical genetic growth profiling, strain panel (AID 1159580);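 further: tested at 20 µM; growth read once vehicle control cultures reached saturation at 30 °C; 1 = growth at the plate median or of vehicle wells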
- conditions: S. cerevisiae deletion strains, growth OD, locus YCL016C, strain dcc1, stronger effect = lower value
Screen size: about 5,500 compounds; about 2,000 (36%) were called active. Not shown: some 18% with an inconclusive outcome. This is one part of the list.
So basically, if normalized growth comes in under 1 it's 1 (yes), and if it's 1 or more it's 0 (no).

1. CN(C)C(=N)N=C(N)N | 0 (no)
2. c1ccc2c(Cc3c[nH]c4ccccc34)c[nH]c2c1 | 1 (yes)
3. C#CC1(O)CCC2C3CCC4=CC(=O)CCC4(C)C3CCC21C (centres undefined) | 1 (yes)
4. CO[C@@]1(NC(=O)Cc2cccs2)C(=O)N2C(C(=O)O)=C(COC(N)=O)CS[C@@H]21 | 1 (yes)
5. COc1c2c(cc3c1OCO3)C13C=C[C@H](OC)CC1N(C2)CC3O (some centres undefined) | 1 (yes)
6. CC(=O)N[C@@H](Cc1c[nH]c2ccccc12)C(=O)O | 1 (yes)
7. C=C(C)[C@H]1Cc2c(ccc3c2O[C@@H]2COc4cc(OC)c(OC)cc4[C@@H]2C3=O)O1 | 1 (yes)
8. COc1ccc2c(c1)[C@]13CCCC[C@H]1[C@H](C2)N(C)CC3 | 0 (no)

====

- assay overview: chemical genetic growth profiling, strain panel (AID 1159580)
- conditions: S. cerevisiae deletion strains, growth OD, locus YCL016C, strain dcc1, stronger effect = lower value
In all, about 5,500 compounds went through this assay and about 2,000 (36%) were called active. Inconclusive results (about 18%) are left out. This is one part of the list.
Property: normalized growth; scope: individual compounds
observation type: normalized growth

1) CC1(C)S[C@@H]2[C@H](NC(=O)Cc3ccccc3)C(=O)N2[C@H]1C(=O)O | 1.03
2) CC1(C)S[C@@H]2[C@H](NC(=O)[C@H](C(=O)O)c3cccs3)C(=O)N2[C@H]1C(=O)O | 0.998
3) C1CCC(C(CC2CCCCN2)C2CCCCC2)CC1 (stereo not given) | 0.955
4) COc1ccc([C@H]2COc3c(ccc(O)c3OC)C2)c(OC)c1O | 0.989
5) Cc1onc(-c2ccccc2)c1C(=O)NC1C(=O)N2[C@@H]1SC(C)(C)[C@@H]2C(=O)O (stereo not given in full) | 1.06
6) Cc1onc(-c2c(Cl)cccc2Cl)c1C(=O)N[C@@H]1C(=O)N2[C@@H]1SC(C)(C)[C@@H]2C(=O)O | 1.03
7) Cc1onc(-c2ccccc2Cl)c1C(=O)N[C@@H]1C(=O)N2[C@@H]1SC(C)(C)[C@@H]2C(=O)O | 1.01
8) CC(=O)[C@@]1(O)CCC2C3CCC4=CC(=O)CC[C@]4(C)C3CC[C@@]21C (stereo not given in full) | 0.992
9) CNCC[C@@H](Oc1ccccc1)c1ccccc1 | 0.979
10) Cc1cc(=O)n(-c2ccccc2)n1C | 0.979

====

- assay overview: chemical genetic growth profiling, strain panel (AID 1159580);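 further: tested at 20 µM; growth read once vehicle control cultures reached saturation at 30 °C; 1 = growth at the plate median or of vehicle wells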
- conditions: S. cerevisiae deletion strains, growth OD, locus YNR030W, strain Alg12
Out of some 5,500 compounds screened, about 2,000 (36%) were called active. About 18% were inconclusive and are not listed. No stated cut-off is given here; in the data, active means normalized growth mostly below about 0.91 (no sharp cut-off); inconclusive means no clear call, values can overlap the other calls; inactive means mostly above about 0.92. Some of the results follow.
Outcome codes: t (active), f (inactive)

1) CC1=NN(c2cccc(S(N)(=O)=O)c2)C(=O)C1 | f
2) CCC(=O)Nc1cc(OC)cc(OC)c1 | f
3) CC(=O)NC(=O)/C(C#N)=C/N1CCN(Cc2ccccc2)CC1 | f
4) O=c1cc(C(F)(F)F)[nH]c2c(Cl)cccc12 | f
5) OC(CSc1ccccc1)CN1CCN(c2ccc(C(F)(F)F)cn2)CC1 (stereo unspecified) | t
6) NS(=O)(=O)c1ccc(-n2ncc3ccccc3c2=O)cc1 | f
7) Cc1nn(-c2ccccc2)nc1C(=O)NNC(=S)Nc1ccc(Cl)cc1 | t
8) CN(C(=O)Nc1ccccc1)n1cnc2ccccc2c1=O | f
9) CC(C)(C)c1ccc(-c2cc(N)c(C(N)=O)s2)cc1 | f
10) COc1cc(/C=N\NC(=S)NC2CC3CCC2C3)cc(OC)c1OC (stereo unspecified) | f
11) COC(=O)c1cc([N+](=O)[O-])ccc1N1CCOCC1 | f
12) O=[N+]([O-])c1ccc(-c2nn[nH]n2)cc1 | f
13) Cc1ccc(OCc2nnc(SCC(=O)c3ccc(F)cc3)n2-c2ccccc2)c2c1CCC2 | f
14) C1CCN(CCC2CCCCN2)CC1 (stereo unspecified) | f
15) O=C1CCCN1c1ccc(Cl)c(Cl)c1 | f
16) C=CCn1c(COc2c(Br)cc(C)c3c2CCC3)n[nH]c1=S | t
17) COc1cccc(Nc2nc3ccccc3s2)c1 | t
18) NC(=S)c1ccc(Oc2ccc(Cl)cc2)nc1 | t
19) CCOC(=O)c1cnc2nc(SC)nn2c1N | f
20) CC(=O)c1cc2cc(Br)ccc2oc1=O | f
21) Cc1ccc(=O)n(Cc2ccc(Cl)c(Cl)c2)n1 | f
22) CC(C)(C)c1ccc(CSc2nc(N)cc(=O)[nH]2)cc1 | f
23) COc1cccc(NC(N)=S)c1 | f
24) c1cc(C2CCCCC2)ccc1C1CCCCC1 | f
25) COC(=O)CSCCc1nc(-c2ccc([N+](=O)[O-])cc2)cs1 | f
26) CC(C)(C)C1=NN(c2ccccc2)C(=O)C1 | f

====

- assay overview: chemical genetic growth profiling, strain panel (AID 1159580);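 further: tested at 20 µM; growth read once vehicle control cultures reached saturation at 30 °C; 1 = growth at the plate median or of vehicle wells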
- conditions: S. cerevisiae deletion strains, growth OD, locus YER111C, strain swi4, stronger effect = lower value
Hit rate of the full screen: of about 5,500 compounds, about 2,000 (36%) were called active. Roughly 18% stayed inconclusive and do not appear here. The list shows a part of the results.
Reported values of normalized growth for individual entries
observation type: normalized growth

1) COc1ccc(-c2oc3ccccc3c(=O)c2O)cc1OC | 0.696 (active)
2) Cc1ccc(N(CC2=NCCN2)c2cccc(O)c2)cc1 | 1.02 (inactive)
3) O=c1c(O)c(-c2ccc(O)c(O)c2)oc2cc(O)ccc12 | 0.97 (inactive)
4) Cc1cc(C(C)(C)C)cc(C)c1CC1=NCCN1 | 1 (inactive)
5) COc1ccc([C@H]2COc3c(ccc(O)c3OC)C2)c(OC)c1O | 0.983 (inactive)
6) NC(=O)N1c2ccccc2C=Cc2ccccc21 | 1.03 (inactive)

====

- assay overview: chemical genetic growth profiling, strain panel (AID 1159580);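 further: tested at 20 µM; growth read once vehicle control cultures reached saturation at 30 °C; 1 = growth at the plate median or of vehicle wells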
- conditions: S. cerevisiae deletion strains, growth OD, locus YJR066W, strain TOR1
Hit rate of the full screen: of about 5,500 compounds, about 2,000 (36%) were called active. Inconclusive results (about 18%) are left out. Cut-off read from the data, not from the text of the source: active = normalized growth mostly below about 0.91 (no sharp cut-off); inconclusive = no clear call, values can overlap the other calls; inactive = mostly above about 0.92. Some of the results follow. Where a SMILES comes first, the peptide text is derived from it. [ ]: non-standard residue; d: D form. Orn = NCCC[CH](N)C(=O)O
Labels: label 1 (active), label 0 (inactive)

1. NC(N)=NC(N)=Nc1ccccc1 | label 0
2. C#CC1(O)CCC2C3CCC4=CC(=O)CCC4(C)C3CCC21C (stereo not drawn) | label 0
3. Cc1c(NC(=O)c2cccnc2)c(=O)n(-c2ccccc2)n1C | label 0
4. CCN(CC)C(=O)c1ccc(O)c(OC)c1 | label 0
5. CC1(C)C=Cc2cc3ccc(=O)oc3cc2O1 | label 1
6. CC(=O)OCC(=O)[C@@]1(O)CCC2C3CCC4=CC(=O)CC[C@]4(C)C3[C@@H](O)C[C@@]21C (stereo partly drawn) | label 0
7. Cc1ccc(N(CC2=NCCN2)c2cccc(O)c2)cc1 | label 0
8. C=C(C)[C@@H]1CC[C@]2(CO)CC[C@]3(C)[C@H](CCC4[C@@]5(C)CC[C@H](O)C(C)(C)C5CC[C@]43C)C12 (stereo partly drawn) | label 0
9. CCOc1ccc(C(=O)c2cc(O)c(OC)c(OC)c2O)cc1 | label 0
10. O=C(NNC(=S)Nc1ccc(Cl)cc1)c1ncc(C(F)(F)F)cc1Cl | label 0
11. C#C[C@]1(O)CCC2C3CCC4=Cc5oncc5C[C@]4(C)C3CC[C@@]21C (stereo partly drawn) | label 0
12. COc1ccc(-c2oc3ccccc3c(=O)c2O)cc1OC | label 0
13. CN1c2ccccc2C(C)(C)C12C=Cc1cc(O)ccc1O2 (stereo not drawn) | label 0
14. CN(C)CCc1c[nH]c2ccc(C[C@H]3COC(=O)N3)cc12 | label 0
15. CN[C@@H]1[C@@H](O[C@H]2O[C@H](CO)[C@@H](N)[C@H](O)[C@H]2O)O[C@H]2C[C@@H](N)[C@H](O[C@H]3[C@H](O)[C@@H](O)[C@H](N)C[C@@H]3N)O[C@@H]2[C@@H]1O | label 0
16. O=C1c2ccccc2C(=O)C1c1ccccc1 | label 0
17. CC(=O)O[C@H]1CC[C@]2(C)C3CC[C@@]4(C)C(CC5O[C@@]6(CCC(C)CO6)[C@@H](C)C54)C3CC[C@@H]2C1 (stereo partly drawn) | label 0
18. OC(CSc1ccccc1)CN1CCN(c2nc(-c3ccccc3)ns2)CC1 (stereo not drawn) | label 0
19. NC[C@H]1O[C@H](O[C@H]2[C@H](O)[C@@H](O[C@H]3O[C@H](CO)[C@@H](O)[C@H](N)[C@H]3O)[C@H](N)C[C@@H]2N)[C@H](N)C[C@@H]1O | label 0
20. COc1ccc(C(=O)O)c(O)c1OC | label 0
21. CC(=O)[C@@]12O[C@](C)(c3ccccc3)O[C@@H]1CC1C3CCC4=CC(=O)CC[C@]4(C)C3CC[C@@]12C (stereo partly drawn) | label 0
22. CC(C)(C)C(=O)c1sc2sc(C(=O)C(C)(C)C)c(N)c2c1N | label 0
23. C[C@]12CCC(=O)C=C1CCC1C2C(=O)C[C@@]2(C)C1CC[C@]2(O)C(=O)CO (stereo partly drawn) | label 0
24. C[C@]12CCC(=O)C=C1CCC1C2[C@@H](O)C[C@@]2(C)C1CC[C@]2(O)C(=O)COC(=O)CCC(=O)O (stereo partly drawn) | label 0
25. O=C(CCBr)N1CCN(C(=O)CCBr)CC1 | label 0
26. Cc1cc(C(C)(C)C)c(O)c(C)c1CC1=NCCN1 | label 0
27. CC(C)CC1NC(=O)C(CCCN)NC(=O)C(C(C)C)NC(=O)C2CCCN2C(=O)C(Cc2ccccc2)NC(=O)C(CC(C)C)NC(=O)C(CCCN)NC(=O)C(C(C)C)NC(=O)C2CCCN2C(=O)C(Cc2ccccc2)NC1=O (stereo not drawn) (cyclo(FPV[Orn]LFPV[Orn]L); configuration not given here) | label 0
28. NC[C@H]1O[C@H](O[C@H]2C(O[C@@H]3O[C@H](CO)[C@@H](O)[C@H]3O)[C@@H](O)[C@H](N)C[C@@H]2N)[C@H](N)[C@@H](O)[C@@H]1O (stereo partly drawn) | label 0
29. C=C(C)[C@@H]1CC[C@]2(C)CC[C@]3(C)[C@@H](CCC4[C@@]5(C)CC[C@H](O)C(C)(C)C5CC[C@]43C)C12 (stereo partly drawn) | label 0
30. CCC1(CC)C(=O)C=CNC1=O | label 0
31. O=c1c(-c2ccccc2)c(O)c2cccc3c4ccccc4n1c23 | label 1
32. O=C(Nc1cc2c(s1)-c1cc(Cl)ccc1SC2)Oc1ccccc1 | label 0
33. Cc1cc(C(C)(C)C)cc(C)c1CC1=NCCN1 | label 0
34. CO[C@@]1(NC(=O)Cc2cccs2)C(=O)N2C(C(=O)O)=C(COC(N)=O)CS[C@@H]21 | label 0
35. Clc1ccc(N/N=C\c2sccc2Oc2ccccc2)cc1 | label 1
36. CN(C)C(=N)N=C(N)N | label 0
37. CNS(=O)(=O)Cc1ccc2[nH]cc(CCN(C)C)c2c1 | label 0
38. COc1ccc(C2CC(c3ccc(C)cc3C)=NN2C(C)=O)cc1 (stereo not drawn) | label 0
